Just for reference, ChEMBL document CHEMBL5230136 is where these values come from.

Measured IC50 accompanies every entry in the list below.
# SYSTEM_TESTED: Dual specificity tyrosine-phosphorylation-regulated kinase 1A (Homo sapiens, UniProt Q13627)
OBSERVATION_TYPE: IC50

> print(dat)
                           smiles.entry  observation.type  experimental.result
1  O=c1oc2cc(O)ccc2c2c1[nH]c1ccc(O)cc12              IC50               0.3 nM
2  O=c1oc2ccc(O)cc2c2c1[nH]c1ccc(O)cc12              IC50                67 nM

* * *

Measured inhibition zone (IZ) accompanies every entry in the list below.
# Tested on: Klebsiella aerogenes
# ASSAY_REMARKS: Antibacterial activity against Enterobacter aerogenes assessed as zone of inhibition
# Format: functional
OBSERVATION_TYPE: inhibition zone (IZ) (mm)

> print(dat)
                                   molecule  experimental.result
1  N#CC1=C(N)Oc2c(c(=O)oc3ccccc23)C1c1ccc(Br)cc1 (centres undefined)                   10
2  O=c1[nH]cnc2c1C(c1ccc(Br)cc1)c1c(c3ccccc3oc1=O)O2 (centres undefined)                   12
3  NC1NC=NC2=C1C(c1ccc(Br)cc1)c1c(c3ccccc3oc1=O)O2 (centres undefined)                   20
4  CC1(C)S[C@@H]2[C@H](NC(=O)[C@H](N)c3ccc(O)cc3)C(=O)N2[C@H]1C(=O)O                   10

* * *

# Test system: Plasmodium falciparum
# ASSAY_REMARKS: Antimalarial activity against Plasmodium falciparum by LDH assay
# Format: functional, organism-based
pIC50: −log10 of the molar value.
OBSERVATION_TYPE: pIC50

> print(dat)
                                   molecule  observation.type  experimental.result
1  CCN(CC)CCCC(C)Nc1cc2c(c(C)n1)c(=O)oc1ccccc12 (stereo unspecified)             pIC50                 5.96

* * *

# SYSTEM_TESTED: D(4) dopamine receptor (Homo sapiens)
# Sequence (P21917 whole entry): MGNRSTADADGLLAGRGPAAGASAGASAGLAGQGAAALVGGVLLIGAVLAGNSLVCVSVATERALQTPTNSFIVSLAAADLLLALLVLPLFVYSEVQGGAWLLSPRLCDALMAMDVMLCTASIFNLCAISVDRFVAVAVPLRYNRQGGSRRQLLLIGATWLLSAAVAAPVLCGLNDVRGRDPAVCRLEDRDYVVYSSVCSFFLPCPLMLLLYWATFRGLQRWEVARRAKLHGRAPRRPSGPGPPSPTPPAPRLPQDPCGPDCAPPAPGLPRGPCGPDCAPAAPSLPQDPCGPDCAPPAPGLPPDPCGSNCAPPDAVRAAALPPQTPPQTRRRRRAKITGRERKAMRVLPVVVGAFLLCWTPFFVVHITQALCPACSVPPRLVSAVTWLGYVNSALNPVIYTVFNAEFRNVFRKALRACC
OBSERVATION_TYPE: Ki (nM)

> print(dat)
                              smiles.entry  observation.type  experimental.result
1  COc1ccc2c3c(c(=O)oc2c1)CN(Cc1ccncc1)CC3                Ki                  1.5

* * *

# Test system: L1210
# ASSAY_REMARKS: Cytotoxicity against […] cells assessed as reversal of multi drug resistance at 1 uM
# Format: functional, cell-based
# MEASUREMENT_SETUP: Mus musculus
pIC50: −log10 of the molar value.
Measured pIC50 accompanies every entry in the list below.
OBSERVATION_TYPE: pIC50

> print(dat)
                               smiles.entry  system.tested  experimental.result
1  O=c1oc2cc(O)c(O)cc2c2c(-c3ccc(O)c(O)c3)cn(CCc3ccc(O)c(O)c3)c12          L1210                 5.00
2  COc1ccc(CCn2cc(-c3ccc(OC)c(OC)c3)c3c4cc(OC)c(OC)cc4oc(=O)c32)cc1OC          L1210                 4.30

* * *

# ASSAY_REMARKS: Cytotoxicity against human MRC5 cells assessed as reduction in cell viability measured after 72 hrs by MTT assay
# Format: toxicity, cell-based
OBSERVATION_TYPE: IC50 at 72 h

> print(dat)
                               smiles.entry  experimental.result
1  COc1cc2c(cc1O)oc(=O)c1c2c(-c2ccc(OC)c(OC)c2)c2c3cc(OC)c(O)cc3ccn21              > 97 µM

* * *

Measured pIC50 accompanies every entry in the list below.
# System: K562
# ASSAY_REMARKS: cells
# MEASUREMENT_SETUP: Homo sapiens
# Description: Cytotoxicity against human K562 cells at 50 uM by MTT reduction assay
pIC50: −log10 of the molar value.
OBSERVATION_TYPE: pIC50

> print(dat)
                                smiles.entry  observation.type  reported.relation  experimental.result
 1  O=C1CCCc2nc3c(c(-c4ccc(Cl)cc4)c21)c(=O)oc1ccccc13             pIC50                  =                 4.43
 2  Cc1ccccc1-c1c2c(nc3c1c(=O)oc1ccccc13)CCCC2=O             pIC50                  <                 4.00
 3  COc1ccccc1-c1c2c(nc3c1c(=O)oc1ccccc13)CCCC2=O             pIC50                  <                 4.00
 4  O=C1CCCc2nc3c(c(-c4ccc(Br)cc4)c21)c(=O)oc1ccccc13             pIC50                  =                 4.32
 5  COc1cccc(-c2c3c(nc4c2c(=O)oc2ccccc24)CCCC3=O)c1             pIC50                  <                 4.00
 6  COc1ccc(-c2c3c(nc4c2c(=O)oc2ccccc24)CCCC3=O)cc1             pIC50                  <                 4.00
 7  Cc1cccc(-c2c3c(nc4c2c(=O)oc2ccccc24)CCCC3=O)c1             pIC50                  =                 4.24
 8  Cc1ccc(-c2c3c(nc4c2c(=O)oc2ccccc24)CCCC3=O)cc1             pIC50                  =                 4.25
 9  O=C1CCCc2nc3c(c(-c4ccccc4[N+](=O)[O-])c21)c(=O)oc1ccccc13             pIC50                  =                 4.60
10  O=C1CCCc2nc3c(c(-c4cccc(Br)c4)c21)c(=O)oc1ccccc13             pIC50                  =                 4.41
11  O=C1CCCc2nc3c(c(-c4ccc([N+](=O)[O-])cc4)c21)c(=O)oc1ccccc13             pIC50                  =                 4.36
12  O=C1CCCc2nc3c(c(-c4cccc(Cl)c4)c21)c(=O)oc1ccccc13             pIC50                  =                 4.29
13  O=C1CCCc2nc3c(c(-c4ccccc4Cl)c21)c(=O)oc1ccccc13             pIC50                  <                 4.00

* * *

# Tested on: Candida albicans
# ASSAY_REMARKS: Antifungal activity against Candida albicans assessed as zone of inhibition at 20 mg/ml
# Assay type: functional
# MEASUREMENT_SETUP: read-out: IZ
Measured zone of inhibition at 20000 µg/mL accompanies every entry in the list below.
OBSERVATION_TYPE: zone of inhibition at 20000 µg/mL

> print(dat)
                                   compound     system.tested  experimental.result
1        CCOC(=O)c1sc2c(c1N)c(=O)oc1ccccc12  Candida albicans                13 mm
2  CCOC(=O)c1sc2c(c1NC(=O)CNc1ccc(S(N)(=O)=O)cc1)c(=O)oc1ccccc12  Candida albicans                 0 mm
3  CCOC(=O)c1sc2c(c1NC(=O)CN1CCOCC1)c(=O)oc1ccccc12  Candida albicans                 0 mm
4  O=C(N[C@H](CO)[C@H](O)c1ccc([N+](=O)[O-])cc1)C(Cl)Cl [CHLORAMPHENICOL]  Candida albicans                20 mm
5  CCOC(=O)c1sc2c(c1NC(=O)CNc1ccc(C)cc1)c(=O)oc1ccccc12  Candida albicans                13 mm
